Where do the numbers come from? From the nanobody polyreactivity screen of Harvey et al. (2022).

test: yeast display, Sf9 membrane polyspecificity reagent, FACS + sequencing; frameworks hold sequencing errors
Recorded Endpoint: polyreactivity (PSR sort gate)

{"columns": ["Seq Text", "Recorded Endpoint", "Data Value"],
 "data": [
  ["QVQLVESRGGLVQAGGSLRLSCDASGFIFTLYAMGWYRQAPGKERELVASIRGSGGNTYYADSVKGRFTISRDNAKNTVYLQMNSLKPEDTAVYYCAARTYRRPYSSWGQGTQVTVSS", "polyreactivity (PSR sort gate)", "high polyreactivity"],
  ["QVQLVESGGGLVQAGGSLRLSCAASGRIFVSNAMGWYRQAPGKERELVAAISKSGGRTYYADSVKGRFTISRDNAKNTVYLQMNSLKPEDTAVYYCNAVISLPGNKYDYWGQGTQVTVSS", "polyreactivity (PSR sort gate)", "high polyreactivity"],
  ["QVQLVESGGGLVQAGGSLRLSCAASGLIFSEYAMGRSRQAPWKERELVAAIRSDGGSTYYADSVKGRFTISRDNAKNSVYLQMNSLKPEDTAVYYCNAPYRRSAKFRRYGYDYWGQGTQVTVSS", "polyreactivity (PSR sort gate)", "high polyreactivity"],
  ["QVQLVESGGRLVQAGGSLRFSCAASGGIFESYAMGGYRQAPGQERELVASISSGGSTYYADSVKGRFTISRDNAKNTVYLQMNSLKPEDTAVYYCNTDNGSHGMDYWGQGTQVTVSS", "polyreactivity (PSR sort gate)", "low polyreactivity"],
  ["QVQLVESGGGLVQAGGSLRLSCAASGSTFSWNTMGWYRQAPGIERELVAAINSGGSTYYADSVKGRFTISRDNAKNSVYLQMNSLKPEDTAVYYCAADWRGSYLYGYYYWGQGTQVTVSS", "polyreactivity (PSR sort gate)", "low polyreactivity"]
]}

====

experiment: yeast display, Sf9 membrane polyspecificity reagent, FACS + sequencing; frameworks hold sequencing errors

{"columns": ["Seq Text", "polyreactivity (PSR sort gate)"],
 "data": [
  ["QVQLVESGGGLVQAGGSLRLSCAASGSIFNAMGWYRQAPGKERELVAAITSGSSTYYADSVKGRFTISRDNAKNTVYLQMNSLKPEDTAVYYCAAGSQRRYYHTNWDSFNYWGQGTQVTVSS", "low polyreactivity"],
  ["QVQLVESRGVLVQAGGSLRLSCAASGSNFYVYAMGWYRPAPGKERELVAGISWSADSTYYADSVKGRFTISRDNAKYTVYLQMNSLKPEDSAVYYCATDRYPTRRYDYWGQGTQVTVSS", "low polyreactivity"],
  ["QVQLVESGGGLVQAGGSLRLSCAASGNTFVYKDMGWYRQAPGKERELVADIRYSGSTYYADSVKGRFTISRDNAKNTVYLQMNSLKPEDTAVYYCAKAYYVLSWMGYWGQGTQVTVSS", "low polyreactivity"],
  ["QVQLVESGGGLVQAGGSLRLSCAASGITFTYYAMGWYRQAPGKERELVAGISRGGSTYYADSVKGRFTISRDNAKNTVYLQMNSLKPEDTAVYYCAATSYRRTGYNYWGQGTQVTVSS", "high polyreactivity"],
  ["QVQLVESGGGLVQAGGSLRLSCAASGITFVWYDMGWYRQAPGKEREFVAVISKRGGSTYYADSVKGRFTISRDNAKNTVYLQMNSLKPEDTAVYYCAASYNLYRRYYYWGQGTQVTVSS", "high polyreactivity"]
]}
